- Target of assay: Cytochrome P450 2C19 (Homo sapiens, UniProt P33261)
- Sequence (P33261 whole entry): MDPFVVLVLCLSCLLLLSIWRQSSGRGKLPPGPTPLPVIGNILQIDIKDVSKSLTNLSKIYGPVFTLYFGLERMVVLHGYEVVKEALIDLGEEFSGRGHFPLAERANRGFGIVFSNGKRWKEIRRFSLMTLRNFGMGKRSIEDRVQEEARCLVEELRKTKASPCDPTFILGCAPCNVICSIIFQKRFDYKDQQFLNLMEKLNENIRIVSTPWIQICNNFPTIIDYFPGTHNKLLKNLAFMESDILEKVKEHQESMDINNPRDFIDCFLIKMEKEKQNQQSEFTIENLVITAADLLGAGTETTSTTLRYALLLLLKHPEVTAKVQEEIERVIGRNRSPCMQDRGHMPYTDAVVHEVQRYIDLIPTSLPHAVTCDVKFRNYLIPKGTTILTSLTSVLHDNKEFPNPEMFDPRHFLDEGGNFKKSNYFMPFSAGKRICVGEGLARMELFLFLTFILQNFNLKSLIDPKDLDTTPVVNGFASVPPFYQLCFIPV
- Assay notes: Cytochrome panel assay with activity outcomes. Panel member name: p450-cyp2c19 Compounds with AC50 equal or less than 10 uM are considered active
- Assay type: functional
- Experimental setup: read-out: AC50
Measured AC50 values are reported for all entries that follow.
Measurement name: AC50

* CCc1nnc(NS(=O)(=O)c2ccc(/N=C/c3c(C)nn(-c4ccc(C)cc4)c3O)cc2)s1 | 5.01 µM (inconclusive)
* O=C(O)[C@H]1[C@H]2c3ccccc3[C@H](c3ccccc32)[C@@H]1C(=O)NCC1CC1 | 3.98 µM (inconclusive)
* Cn1c(-c2ccc(Br)cc2)cnc1NCc1cccnc1 | 17.8 µM (inconclusive)
* CC1(C)CC(=O)C(CCCN2C(=O)c3ccccc3C2=O)C(=O)C1 | 39.8 µM (inconclusive)
* O=c1oc(-c2cccs2)nc2ccc(Br)cc12 | 22.4 µM (inconclusive)
* O=C(Oc1oc(-c2ccco2)nc1/C=N/c1ccc(Cl)cc1)c1ccco1 | 14.1 µM (inconclusive)
* C/C(=N\OC(=O)c1ccccc1)c1cc(-c2ccc(Cl)cc2)no1 | 22.4 µM (inconclusive)
* O=C(CNC(=O)c1ccccc1)NCC(=O)OCc1ccc(Cl)cc1 | 20 µM (inconclusive)

All figures here come from ChEMBL document CHEMBL1201862.
